FYI, the data here is from PubChem BioAssay.

- STUDY_TARGET: Potassium voltage-gated channel subfamily KQT member 2 (Rattus norvegicus) (UniProt O88943)
- Sequence (O88943 whole entry, looked up): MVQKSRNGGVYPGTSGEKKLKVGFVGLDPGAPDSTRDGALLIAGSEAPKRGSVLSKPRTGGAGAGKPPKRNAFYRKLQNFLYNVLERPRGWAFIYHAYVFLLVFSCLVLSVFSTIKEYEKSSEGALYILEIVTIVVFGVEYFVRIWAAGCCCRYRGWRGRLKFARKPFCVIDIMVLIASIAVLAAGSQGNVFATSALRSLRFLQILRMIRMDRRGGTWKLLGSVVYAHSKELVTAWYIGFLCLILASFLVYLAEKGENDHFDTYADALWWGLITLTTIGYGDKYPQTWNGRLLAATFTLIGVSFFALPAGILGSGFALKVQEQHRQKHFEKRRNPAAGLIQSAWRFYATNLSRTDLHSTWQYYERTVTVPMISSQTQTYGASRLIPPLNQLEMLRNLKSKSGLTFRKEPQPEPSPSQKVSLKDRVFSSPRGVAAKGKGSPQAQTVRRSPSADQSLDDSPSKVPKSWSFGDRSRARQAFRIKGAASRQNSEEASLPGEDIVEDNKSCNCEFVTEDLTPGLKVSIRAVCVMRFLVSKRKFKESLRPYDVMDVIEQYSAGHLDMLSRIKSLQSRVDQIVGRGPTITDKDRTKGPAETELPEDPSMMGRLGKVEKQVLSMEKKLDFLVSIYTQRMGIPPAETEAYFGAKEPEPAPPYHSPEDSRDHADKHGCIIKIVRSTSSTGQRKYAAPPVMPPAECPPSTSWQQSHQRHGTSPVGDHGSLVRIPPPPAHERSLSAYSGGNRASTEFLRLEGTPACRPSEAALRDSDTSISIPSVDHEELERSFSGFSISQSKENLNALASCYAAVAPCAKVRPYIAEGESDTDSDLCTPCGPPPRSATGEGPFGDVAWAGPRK
- ASSAY_TEXT: rat KCNQ2 channel potentiation, selectivity assay for KCNQ1 potentiator project, KCNQ2-CHO-K1 cells (AID 493009);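 note: assay conditions were tuned for KCNQ1 rather than KCNQ2 modulators; signal is max minus min fluorescence divided by baseline after thallium stimulus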
- RECORDED_CONDITIONS: FluxOR thallium flux fluorescence, at 10 µM, scaled: buffer 0, activator control 100
The source made the active and inactive calls.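 Rule for the calls: active = mean duplicate potentiation above the buffer control mean plus 5 SD of buffer wells; inactive = the rest.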
Outcomes you can answer with include only these: yes (1) = active, no (0) = inactive

Kindly provide the recorded test outcome for the following compound: Cc1ccc(C(=O)Nc2nc3ccccc3c(=O)s2)cc1 yes (1)

Now try O=C1CN(S(=O)(=O)c2ccccc2)CC(=O)N1CCc1ccccc1 . no (0)

Now try C=CCn1c(O)c(N=NC(=S)Nc2cccc(C)c2)c2ccccc21 . yes (1)

Now try CC(OC(=O)CC1Sc2ccccc2NC1=O)C(=O)NC1CCCC1 (stereo not drawn) . no (0)

Now try O=C(NC(=S)N1CCc2ccccc21)c1ccc(Br)o1 . yes (1)

Now try CCOC(=O)c1sc(NC(=S)NC(=O)c2ccco2)nc1C . yes (1)

Now try Cc1ccc(O)c(NC(=S)NC(=O)COc2ccc(Br)cc2)c1 . no (0)

Now try Cc1ccc2nc(C)cc(N/N=C/c3cccnc3)c2c1 . no (0)

Now try O=C(c1ccco1)N1CCN=C1SCc1ccc(F)cc1 . no (0)

Now try CN1C=CC=C/C1=C1\SC(=S)N(Cc2ccccc2)C1=O . no (0)

Now try Cc1cc(Cl)c(S(=O)(=O)Nc2ccc3c(c2)OCO3)cc1OCC(N)=O . no (0)

Now try Cc1ccc(O)c(C(=O)CC(=O)c2ccc(Cl)cc2)c1 . no (0)

Now try COc1cc(CNCc2ccccn2)ccc1OCc1c(Cl)cccc1Cl . no (0)

Now try CC(C)(C)n1nnnc1C(c1cc2cc3c(cc2[nH]c1=O)OCCO3)N1CCSCC1 (stereo not drawn) . no (0)

Now try C/C(N)=C(/C#N)C(=O)CSc1nc2ccccc2c(=O)n1Cc1ccc(F)cc1 . yes (1)

Now try Cc1cccc(C(=O)NNC(=O)C(=O)NC(C)(C)C)c1 . yes (1)

Now try CC12CCC(C/C1=N\N=C1\NC(=O)/C(=C\c3ccc(Cl)cc3)S1)C2(C)C (stereo not drawn) . yes (1)

Now try O=c1c2cc(Cl)ccc2nc(-c2ccccc2)n1O . yes (1)

Now try Cc1ccc(S(=O)(=O)N2CCN(C(=O)CCC(=O)OCC(=O)Nc3cccc(C#N)c3)CC2)cc1 . no (0)

Now try CSc1nc(-c2ccccc2)[nH]c(=S)c1C(C)=O . yes (1)

Now try Cc1cc(Br)ccc1OCC(=O)NNC(=O)C(=O)Nc1ccccc1 . yes (1)

Now try COc1cc(CN2CCN(c3cccc(Cl)c3)CC2)cc(OC)c1OC . no (0)

Now try COC(=O)N/N=C/c1cc(C)n(-c2ccc(Br)cc2)c1C . no (0)

---

- STUDY_TARGET: Potassium voltage-gated channel subfamily KQT member 1 (Homo sapiens) (UniProt P51787)
- Sequence (P51787 whole entry, looked up): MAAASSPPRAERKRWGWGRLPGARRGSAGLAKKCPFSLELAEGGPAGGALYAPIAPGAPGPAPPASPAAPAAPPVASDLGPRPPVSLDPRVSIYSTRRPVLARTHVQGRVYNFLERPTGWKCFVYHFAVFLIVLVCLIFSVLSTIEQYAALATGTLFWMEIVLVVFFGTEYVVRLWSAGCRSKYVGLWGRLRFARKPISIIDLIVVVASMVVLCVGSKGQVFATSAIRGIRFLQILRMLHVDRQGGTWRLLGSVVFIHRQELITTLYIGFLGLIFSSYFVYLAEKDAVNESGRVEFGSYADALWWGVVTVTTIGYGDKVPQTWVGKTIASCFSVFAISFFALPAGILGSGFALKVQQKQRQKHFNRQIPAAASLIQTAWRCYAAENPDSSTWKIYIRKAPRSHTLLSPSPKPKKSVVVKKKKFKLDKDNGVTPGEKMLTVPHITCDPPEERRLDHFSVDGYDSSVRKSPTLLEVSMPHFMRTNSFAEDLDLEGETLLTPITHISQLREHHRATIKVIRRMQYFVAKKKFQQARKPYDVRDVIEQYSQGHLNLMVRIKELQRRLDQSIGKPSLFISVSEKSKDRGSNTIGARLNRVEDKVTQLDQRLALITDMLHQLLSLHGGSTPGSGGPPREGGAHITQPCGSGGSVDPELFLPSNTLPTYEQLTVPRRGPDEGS
- ASSAY_TEXT: KCNQ1 potassium channel potentiators, confirmation, FluxOR thallium flux, CHO cells, duplicates (AID 493007);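 for outcome: cells depolarized by a potassium plus thallium sulfate stimulus after compound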
- RECORDED_CONDITIONS: KCNQ1 cell line, FluxOR thallium flux fluorescence, at 10 µM, % of reference activator effect, buffer zero
Active and inactive are the calls of the source.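 The calls were made as follows: active = potentiation averaged over duplicate wells exceeding buffer-only control mean by more than 3 SD; inactive = the rest.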
Outcomes you can answer with include only these: active, inactive

Kindly provide the recorded test outcome for the following compound: OC(CNC1CCCCC1)COCCOc1ccc(Br)cc1 (configuration not stated) inactive

Now try COc1cccc(CN2CCN(Cc3cc4ccccc4[nH]3)CC2CCO)c1 (configuration not stated) . active

Now try Cc1ccc(C)c(SCC(=O)NC(=O)Nc2ccc3c(c2)OCCO3)c1 . inactive

Now try Cc1ccc(C(=O)OCC(=O)NCCC2=CCCCC2)s1 . inactive

Now try Cc1[nH][nH]c(=O)c1C(c1ccc(-c2ccc(Cl)c(Cl)c2)o1)c1c(C)[nH][nH]c1=O . active

Now try Cn1c(=O)c2c(ncn2CC(=O)N/N=C/C(Cl)=C/c2ccccc2)n(C)c1=O . inactive

Now try COC(=O)c1ccccc1NC(=O)Cn1c(=O)n(Cc2ccccc2)c(=O)c2c(C)c(C)sc21 . inactive

Now try O=C(NC(=S)N1CCN(Cc2ccc3c(c2)OCO3)CC1)c1ccc(Cl)cc1 . active

Now try CC1(C)CC[C@]2(C(=O)O)CC[C@]3(C)C(=CCC4[C@@]5(C)CC[C@H](O)C(C)(C)C5[C@H](O)C[C@]43C)[C@@H]2C1 (some centres not stated) . active

Now try CC(C)CCn1c(=S)[nH]c2ncccc2c1=O . inactive

Now try CCC1=NN2C(=N)/C(=C/c3ccc(OS(=O)(=O)c4ccccc4)c(OC)c3)C(=O)N=C2S1 . inactive

Now try COc1ccc(OC)c(Nc2cc3ccccc3c(=O)[nH]2)c1 . inactive

Now try COC(=O)N/N=C/c1cc(C)n(-c2ccc(F)cc2)c1C . inactive

Now try Oc1ccc(Br)cc1C=Nc1ccc(Cl)cc1 . inactive

Now try Cc1ccccc1C(=O)c1c[nH]c(C(=O)N2CCN(c3ccccc3F)CC2)c1 . inactive

Now try CCOC(=O)CSc1nc2ccccc2c(=O)n1-c1ccc(C)cn1 . inactive

Now try Cc1cc(C)cc(OCC(O)Cn2nc(C)cc2C)c1 (configuration not stated) . inactive

Now try Cc1ccc2nc(N3CCN(Cc4ccc(F)cc4)C3=O)c(C)cc2c1 . inactive

Now try Cc1[nH]n(-c2cccc3ccccc23)c(=O)c1/C=N/c1sc2c(c1C#N)CCC2 . active

Now try CSc1nc(C)cc(OCC(=O)N/N=C/c2ccccc2O)n1 . inactive

Now try CCOc1ccccc1C1CC(=O)Nc2cc3c(cc21)OCCO3 (configuration not stated) . inactive

Now try CSc1nc(Nc2ccc(Cl)cc2)c(C#N)c(=O)[nH]1 . inactive
